Listed here are sequences together with their documented PBM binding z-score.
# Test system: PPARg homodimer (NR concentration 180 nM)
# measurement.notes: PBM binding z-score (relative to random genomic background probes); higher = stronger binding; sequences stand for … in GC…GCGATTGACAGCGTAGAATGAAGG

# count of solved cases: 4
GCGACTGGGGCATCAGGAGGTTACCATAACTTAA 0.816
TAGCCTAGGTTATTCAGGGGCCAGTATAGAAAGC -0.0619
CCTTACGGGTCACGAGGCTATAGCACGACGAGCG 1.81
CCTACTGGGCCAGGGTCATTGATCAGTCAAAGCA 0.994

In the following, a different sequence is considered.
Please give the documented PBM binding z-score of `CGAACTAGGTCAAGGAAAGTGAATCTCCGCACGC`
1.22

* * *

# Test system: RARa homodimer (NR concentration 270 nM)
# measurement.notes: PBM binding z-score (relative to random genomic background probes); higher = stronger binding; sequences stand for … in GC…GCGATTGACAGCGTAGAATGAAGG
endpoint.label: PBM binding z-score
Simply state the number, no unit and no words.

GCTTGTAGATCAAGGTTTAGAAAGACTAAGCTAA 0.111
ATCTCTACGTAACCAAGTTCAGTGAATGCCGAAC 0.401
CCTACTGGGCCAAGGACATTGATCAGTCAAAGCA -0.533

Attention now shifts to the item below.
Given the sequence `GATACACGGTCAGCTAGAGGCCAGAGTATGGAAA` , write its reported PBM binding z-score.
-0.0449

* * *

# Test system: THRa homodimer (NR concentration 90 nM)
# measurement.notes: PBM binding z-score (relative to random genomic background probes); higher = stronger binding; sequences stand for … in GC…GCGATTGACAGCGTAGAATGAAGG
endpoint.label: PBM binding z-score
Note: the reply should be a number with no unit written.

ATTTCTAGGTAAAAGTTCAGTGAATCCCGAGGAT 0.543
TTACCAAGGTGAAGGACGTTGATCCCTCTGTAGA 0.562
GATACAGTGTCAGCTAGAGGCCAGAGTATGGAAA -0.254
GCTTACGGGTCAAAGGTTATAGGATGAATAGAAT 0.0155

Retrieve PBM binding z-score measured for `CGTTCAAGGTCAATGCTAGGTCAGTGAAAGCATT` and print it.
3.33

Report measured PBM binding z-score; entry is `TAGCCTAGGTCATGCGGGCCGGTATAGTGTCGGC`
0.888

Tell me measured PBM binding z-score for `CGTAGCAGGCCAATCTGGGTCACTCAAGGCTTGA` please.
0.645

Give me measured PBM binding z-score, please, for this sequence: `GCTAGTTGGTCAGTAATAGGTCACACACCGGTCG`
0.841

Supply reported PBM binding z-score belonging to this sequence: `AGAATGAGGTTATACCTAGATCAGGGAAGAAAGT`
0.418

Supply PBM binding z-score value. Item: `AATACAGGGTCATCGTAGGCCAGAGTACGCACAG`
1.54

* * *

# System: FXR:RXRa (NR concentration 270 nM, RXRa partner concentration 90 nM)
# measurement.notes: PBM binding z-score (relative to random genomic background probes); higher = stronger binding; sequences stand for … in GC…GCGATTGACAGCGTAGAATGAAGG
endpoint.label: PBM binding z-score
Just the number, please, no unit after it.

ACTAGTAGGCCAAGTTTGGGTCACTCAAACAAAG 0.368
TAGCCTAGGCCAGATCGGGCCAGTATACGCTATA -0.616
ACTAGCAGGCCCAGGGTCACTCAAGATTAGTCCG 1.28
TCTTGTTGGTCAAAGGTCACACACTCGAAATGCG 5.68

Turning now to a further record.
Using known records, supply PBM binding z-score for `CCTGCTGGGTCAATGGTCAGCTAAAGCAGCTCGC`
2.08
